Test system: HOP-92
method: NCI tumour cell line growth inhibition, 48 h
Calls of active or inactive are those of the source. Cut-off read from the data, not from the text of the source: active = GI50 up to about 1.1 µM and inactive = higher.
quantity.measured: GI50

CCOC(=O)C1(C)CCCc2sc(N)c(C#N)c21 (centres undefined) | > 100 µM (inactive)
O=C(COc1ccccc1)NS(=O)(=O)c1ccccc1 | > 100 µM (inactive)
Cc1c(C(=O)CC(=O)C(=O)Nc2cc(Cl)ccc2Cl)[n+]([O-])c2ccccc2[n+]1[O-] | > 100 µM (inactive)
CN1CCCC2[C@@H]3CCC4=C(O)C(=O)CC[C@]4(C)C3CC[C@@]21C (some centres undefined) | > 100 µM (inactive)

====

Tested on: SF-295
method: NCI tumour cell line growth inhibition, 48 h
Activity calls are given as the source filed them. No stated cut-off is given here; in the data, active = GI50 up to about 1.1 µM and inactive = higher.
Outcome codes: active, inactive

Cc1cc(S(=O)(=O)[N-]/C(=N/S(=O)(=O)c2cc(Cl)sc2Cl)[n+]2ccc(N(C)C)cc2)c(S)cc1Cl | inactive
CCOC(=O)C1Oc2ccc([N+](=O)[O-])cc2C1(C)O (stereo not given) | inactive
Cc1ccc(NCCN(C)C)c2c(=O)c3cc(O)ccc3sc12 | inactive
COC(=O)N1CC(=O)C(C(=O)NC23CC4CC(CC(C4)C2)C3)C1 (stereo not given) | inactive
Nc1nc(SCc2ccccc2)c2ncn(Cc3ccccc3)c2n1 | inactive
CN(C)CCNc1ccc2ncnc3c2c1C(=O)c1ccccc1-3 | active
CC(=O)NC1=C(C)C(=O)c2c(nc3n2CCC3OC(=O)CCl)C1=O (stereo not given) | inactive
COC(=O)C1CC(=O)O[C@H]1c1ccc(OC)c(OC)c1 (stereo not given in full) | inactive
O=C(O)c1ccc(Nc2nc3ccccc3nc2-c2cccs2)cc1 | inactive
CCOC(=O)c1cc(NC(=O)N(CCC#N)CCN(C(=O)N[C@@H](Cc2ccccc2)C(=O)N[C@@H](CC(C)C)C(=O)NC)c2ccccc2)ccc1OC | inactive
[N-]=[N+]=NC1C2CC3CC(C2)CC1C3 (stereo not given) | inactive
CSc1ncnc2c1cnn2Cc1cn(CCCCO)nn1 | inactive
Nc1nc(SCc2ccc([N+](=O)[O-])cc2)nc2c1ncn2C1OC(CO)C(O)C1O (stereo not given) | inactive
O/N=C/[C@H]1COC2(CCCCC2)O1 | inactive
CC(C)(CN1CCCCC1)C(/C=C/c1ccc(Cl)cc1)=N\NC(=O)N/N=C(/C=C/c1ccc(Cl)cc1)C(C)(C)CN1CCCCC1 | inactive
CC1(C)[C@@H]2C[C@H]1c1cnc(-c3ccccn3)cc1C2CCCCC[C@@H]1c2cc(-c3ccccn3)ncc2[C@@H]2C[C@H]1C2(C)C (stereo not given in full) | active
Cc1cccc(-c2nnc(S)[nH]2)c1 | inactive
CCCCCCN(C(=O)Oc1ccccc1)C(C#N)c1ccccc1 (stereo not given) | inactive
C=CCOC(=O)CC[N+]1=CCC(c2ccccc2)(c2ccccc2)O1 | inactive
Cc1cnc(-n2c(C)nc3cc(Cl)ccc3c2=O)s1 | inactive
